Values compiled from ChEMBL document CHEMBL2169830.

What IC50 was measured for each of the following?
Assay: Inhibition of TNFalpha-induced human NFkappaB activity in HEK293 cells incubated for 6 hrs followed by compound wash out measured after 5 mins by luciferase assay
Format: cell-based
One number for each entry, in µM.

Sample records with IC50:
structureSmilesString	IC50 (µM)
O=C1c2ccccc2-c2c1c1ccc([N+](=O)[O-])cc1c(=O)n2CCCO	7.3
CC(=O)NCCCn1c2c(c3ccc(N)cc3c1=O)C(=O)c1ccccc1-2	14.4
NCCCn1c2c(c3ccc([N+](=O)[O-])cc3c1=O)C(=O)c1ccccc1-2	2.6

// below: IC50 requested for another compound
Q) May I ask what IC50 has been recorded for CN(C)c1ccc2c3c(n(CCCN)c(=O)c2c1)-c1ccccc1C3=O ?
A) 32.3
